// data source = patent US20110236969A1

Consider the following binders and their measured Fold IC50 relative to WT readings.
Molecular target: GST-fused human V158 FcγRIIIa (extracellular region) (human) (UniProt P08637)
Sequence (P08637 17-208 F176V): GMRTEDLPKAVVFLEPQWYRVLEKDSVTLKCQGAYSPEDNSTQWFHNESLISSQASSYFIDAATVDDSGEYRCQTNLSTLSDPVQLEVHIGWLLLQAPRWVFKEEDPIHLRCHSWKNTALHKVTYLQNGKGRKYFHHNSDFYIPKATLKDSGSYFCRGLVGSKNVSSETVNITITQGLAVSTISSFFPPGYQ
Assay: AlphaScreen competition with biotin-WT AC10
Note: unit fold is implicit; provide only the numeric part.

binder	unit_name	Fold IC50 relative to WT
AC10 H2L1 (H2 AC10 VH, L1 AC10 VL) (antibody, from a related filing, IgG1, V domains shown) VH: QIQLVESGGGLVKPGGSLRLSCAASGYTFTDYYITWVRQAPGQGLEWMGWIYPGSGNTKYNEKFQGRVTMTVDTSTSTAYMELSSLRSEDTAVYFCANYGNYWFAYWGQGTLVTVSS VL: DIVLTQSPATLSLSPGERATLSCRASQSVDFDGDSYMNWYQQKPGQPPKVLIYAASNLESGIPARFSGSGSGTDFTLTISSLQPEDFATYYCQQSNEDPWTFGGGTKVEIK	fold	0.12

In the following, a different binder is considered.
Requested field: Fold IC50 relative to WT. Item: AC10 H3L3 (H3 AC10 VH, L3 AC10 VL) (antibody, from a related filing, IgG1, V domains shown) VH: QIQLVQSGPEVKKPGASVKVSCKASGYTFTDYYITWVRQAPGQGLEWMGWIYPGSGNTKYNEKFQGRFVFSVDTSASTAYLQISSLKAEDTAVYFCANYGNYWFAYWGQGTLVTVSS VL: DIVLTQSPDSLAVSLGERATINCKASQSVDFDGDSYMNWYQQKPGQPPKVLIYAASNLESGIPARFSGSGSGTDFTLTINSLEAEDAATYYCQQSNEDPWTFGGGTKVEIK
1.04
